Value source: BindingDB's records for patent US20240066136

The reader will find reported Kd values listed item by item below.
- ASSAYED SYSTEM: DNA damage-binding protein 1 (Homo sapiens)
- Sequence (Q16531 whole entry): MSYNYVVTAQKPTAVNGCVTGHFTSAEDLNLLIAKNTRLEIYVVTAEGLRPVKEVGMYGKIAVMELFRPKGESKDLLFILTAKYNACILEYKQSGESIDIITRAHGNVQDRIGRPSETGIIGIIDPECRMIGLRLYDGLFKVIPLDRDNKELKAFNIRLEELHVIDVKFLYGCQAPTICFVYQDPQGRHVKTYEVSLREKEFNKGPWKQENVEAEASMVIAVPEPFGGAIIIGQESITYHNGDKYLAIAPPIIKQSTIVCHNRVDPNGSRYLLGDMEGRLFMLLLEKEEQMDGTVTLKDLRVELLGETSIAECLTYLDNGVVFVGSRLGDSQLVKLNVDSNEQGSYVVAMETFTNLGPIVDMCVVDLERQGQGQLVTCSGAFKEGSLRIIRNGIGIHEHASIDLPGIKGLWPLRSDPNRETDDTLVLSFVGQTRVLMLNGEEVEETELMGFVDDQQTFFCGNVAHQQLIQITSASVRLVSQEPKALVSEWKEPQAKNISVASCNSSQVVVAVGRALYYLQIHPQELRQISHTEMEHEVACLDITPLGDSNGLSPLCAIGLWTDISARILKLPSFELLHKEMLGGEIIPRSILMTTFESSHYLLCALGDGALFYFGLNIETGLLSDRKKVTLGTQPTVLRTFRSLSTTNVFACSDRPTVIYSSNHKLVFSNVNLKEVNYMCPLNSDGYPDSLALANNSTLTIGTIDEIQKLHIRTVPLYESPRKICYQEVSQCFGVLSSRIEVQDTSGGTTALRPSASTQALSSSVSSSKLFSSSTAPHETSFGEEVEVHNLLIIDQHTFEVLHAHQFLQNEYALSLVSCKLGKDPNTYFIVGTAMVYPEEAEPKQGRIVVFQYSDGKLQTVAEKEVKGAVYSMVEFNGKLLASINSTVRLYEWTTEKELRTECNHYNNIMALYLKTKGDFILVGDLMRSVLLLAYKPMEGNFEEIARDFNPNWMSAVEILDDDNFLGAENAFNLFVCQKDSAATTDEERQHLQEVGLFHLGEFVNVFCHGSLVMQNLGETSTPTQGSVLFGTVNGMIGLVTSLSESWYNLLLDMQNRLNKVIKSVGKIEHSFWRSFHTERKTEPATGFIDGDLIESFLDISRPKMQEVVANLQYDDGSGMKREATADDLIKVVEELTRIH
- PROCEDURE TEXT: Surface Plasmon Resonance (SPR) Binding Assay
MEASURED PROPERTY: Kd

[[record]]
compound = "CCCC(=O)Nc1ccc(C(=O)Nc2ncc([N+](=O)[O-])s2)c(NC(C)=O)c1"
measured_property = "Kd"
data_value = "20 to 100 µM"

[[record]]
compound = "CC[C@H](C)[C@H](N)C(=O)N[C@@H](CC(C)C)C(=O)N1CCC[C@H]1C(=O)N[C@@H](CCCCN)C(=O)N[C@H](C(=O)N[C@@H](CC(C)C)C(=O)N[C@@H](Cc1cnc[nH]1)C(=O)N[C@@H](CCCCN)C(=O)N[C@@H](CCCNC(=N)N)C(=O)N[C@H](C(=O)N[C@@H](CC(C)C)C(=O)NCC(=O)N[C@@H](CC(C)C)C(=O)N[C@@H](CO)C(=O)O)[C@@H](C)O)C(C)C [US20240066136,Peptide 1]"
measured_property = "Kd"
data_value = "< 20 µM"

[[record]]
compound = "CC[C@H](C)[C@H](N)C(=O)N[C@@H](CC(C)C)C(=O)N1CCC[C@H]1C(=O)N[C@@H](CCCCN)C(=O)N[C@H](C(=O)N[C@@H](CC(C)C)C(=O)N[C@@H](Cc1cnc[nH]1)C(=O)N[C@@H](CCCCN)C(=O)N[C@@H](CCCNC(=N)N)C(=O)N[C@H](C(=O)N[C@@H](CC(C)C)C(=O)NCC(=O)N[C@@H](CC(C)C)C(=O)O)[C@@H](C)O)C(C)C [US20240066136,Peptide 3]"
measured_property = "Kd"
data_value = "< 20 µM"

[[record]]
compound = "CC(=O)Nc1cc(C(=O)NCCCCCCN)ccc1C(=O)Nc1nc(C)c([N+](=O)[O-])s1"
measured_property = "Kd"
data_value = "> 0.1 µM"

